Target: T1, human CDH6 on cells (human, UniProt P55285 54-790)
T1 sequence: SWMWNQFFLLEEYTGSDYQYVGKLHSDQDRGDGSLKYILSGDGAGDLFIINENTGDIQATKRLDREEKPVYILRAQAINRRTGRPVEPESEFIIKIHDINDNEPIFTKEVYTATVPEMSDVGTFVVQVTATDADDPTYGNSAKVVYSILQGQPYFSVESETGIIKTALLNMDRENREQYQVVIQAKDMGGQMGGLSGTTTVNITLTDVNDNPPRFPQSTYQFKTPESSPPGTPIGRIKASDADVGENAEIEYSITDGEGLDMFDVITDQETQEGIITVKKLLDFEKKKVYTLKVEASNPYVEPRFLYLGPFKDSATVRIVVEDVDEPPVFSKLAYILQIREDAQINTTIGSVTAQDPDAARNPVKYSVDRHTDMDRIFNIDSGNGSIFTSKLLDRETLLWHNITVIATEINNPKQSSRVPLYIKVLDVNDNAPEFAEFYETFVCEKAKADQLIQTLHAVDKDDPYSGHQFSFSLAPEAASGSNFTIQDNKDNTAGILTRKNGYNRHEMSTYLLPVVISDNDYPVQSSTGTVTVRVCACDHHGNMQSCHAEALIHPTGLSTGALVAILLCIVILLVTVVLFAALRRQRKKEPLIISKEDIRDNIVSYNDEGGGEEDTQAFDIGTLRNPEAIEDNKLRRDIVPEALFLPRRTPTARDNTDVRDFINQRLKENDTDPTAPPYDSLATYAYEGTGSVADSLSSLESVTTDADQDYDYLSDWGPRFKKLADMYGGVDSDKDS
Test: cell-based or functional assay
measure: percent inhibition at 1.22 nM ADC, OVCAR3 cells (%)
Answers are plain numbers, in %.

Below, 4 binders whose answers are already recorded.
NOV0674-SMCC-DM1 (antibody, human IgG1, lambda, V domains shown, SMCC-DM1 on primary amines, sites not stated) VH: QVQLLESGGGLVQPGGSLRLSCAASGFTFSSYAMTWVRQAPGKGLEWVSGISGGGSNTYYADSVKGRFTISRDNSKNTLYLQMNSLRAEDTAVYYCARGGGQYFDYWGQGTLVTVSS VL: DIVLTQPPSVSGAPGQRVTISCSGSSSNIGYNYVSWYQQLPGTAPKLLIYRDNQRPSGVPDRFSGSKSGTSASLAITGLQAEDEADYYCAAWTSGSIGWVFGGGTKLTVLG : -10.3
NOV0685-SMCC-DM1 (antibody, human IgG1, lambda, V domains shown, SMCC-DM1 on primary amines, sites not stated) VH: QVQLQQSGPGLVKPSQTLSLTCAISGDSVSGNSAAWNWIRQSPSRGLEWLGIIYYRSKWYNDYAVSVKSRITINPDTSKNQFSLQLNSVTPEDTAVYYCARSSYSGGFDYWGQGTLVTVSS VL: DIVLTQPPSVSGAPGQRVTISCSGSSSNIGSYYVSWYQQLPGTAPKLLIYYNTKRPSGVPDRFSGSKSGTSASLAITGLQAEDEADYYCQSWDKLGKGYVFGGGTKLTVLG : -20.6
NOV0713-SMCC-DM1 (antibody, human IgG1, lambda, V domains shown, SMCC-DM1 on primary amines, sites not stated) VH: QVQLQQSGPGLVKPSQTLSLTCAISGDSVSSNSAAWNWIRQSPSRGLEWLGRIYYRSKWYNDYAVSVKSRITINPDTSKNQFSLQLNSVTPEDTAVYYCARGLVGRYGQPYHFDVWGQGTLVTVSS VL: DIELTQPPSVSVSPGQTASITCSGDNLRSYYVHWYQQKPGQAPVLVIYGNNKRPSGIPERFSGSNSGNTATLTISGTQAEDEADYYCGVYTLSSVVFGGGTKLTVLG : -3.55
NOV0672-SMCC-DM1 (antibody, human IgG1, lambda, V domains shown, SMCC-DM1 on primary amines, sites not stated) VH: QVQLLESGGGLVQPGGSLRLSCAASGFTFNTYGIHWVRQAPGKGLEWVSYIHYSGSSTYYADSVKGRFTISRDNSKNTLYLQMNSLRAEDTAVYYCARHAYGYMDFWGQGTLVTVSS VL: DIALTQPASVSGSPGQSITISCTGTSSDVGAYNYVSWYQQHPGKAPKLMIYGVSKRPSGVSNRFSGSKSGNTASLTISGLQAEDEADYYCQSYDHLLHVVFGGGTKLTVLG : -16.2

The record that follows has no percent inhibition at 1.22 nM ADC, OVCAR3 cells shown yet.
Reported percent inhibition at 1.22 nM ADC, OVCAR3 cells of NOV0693-SMCC-DM1 (antibody, human IgG1, kappa, V domains shown, SMCC-DM1 on primary amines, sites not stated) VH: QVQLLESGGGLVQPGGSLRLSCAASGFTFSSYALHWVRQAPGKGLEWVSYIFYDSSSTYYADSVKGRFTISRDNSKNTLYLQMNSLRAEDTAVYYCARFLYSAYGVANWGQGTLVTVSS VL: DIQMTQSPSSLSASVGDRVTITCRASQSISFYLAWYQQKPGKAPKLLIYGASTLQSGVPSRFSGSGSGTDFTLTISSLQPEDFATYYCHQYSYWLRTFGQGTKVEIKR : 85.7
